Assay: Stability in aqueous solution assessed as half life
Type: physicochemical
readout.kind: half-life (h)

// known answers, use as guide
chemical_string=BrCc1ccc(CBr)c2ccccc12 val=0.567
chemical_string=BrCc1ccc(CBr)c2ncccc12 val=10.5

[A] BrCc1ccc2nc(CBr)ccc2c1
[B] ClCc1ccc2cc(CCl)ccc2c1
[C] ClCc1ccc(CCl)c2ccccc12
Query: Reorder: half-life, max to min. The reply should contain the labels ordered as requested.
Result: A, C, B
